Assay: Quantitative High-Throughput drug screen in 47 multiple myeloma cell lines against the NCATS MIPE library collection: Karpas25_ECACC cell viability assay (AID 1918968; further: nearly all actives have a fitted effect of over 35% in size)
Details: Karpas25 myeloma viability, CellTiter-Glo ATP, 48 h; series mostly up to 45.8 µM
Records with an inconclusive call do not appear. Activity calls are given as the source filed them. The call rests on the fitted dose curve; in most records, active means well fitted cell-killing curve with a large enough effect; inconclusive means small, poorly fitted or top-dose-only effect, or effect the other way; inactive means no such curve, though single readings can be large or run the other way.
The reply should name one outcome from true for active, false for inactive

Q: # fetch the recorded call for C[C@@H]1CN(Cc2ccc(F)cc2)[C@@H](C)CN1C(=O)c1cc2c(C(=O)C(=O)N(C)C)cn(C)c2cc1Cl here
Result: true

Q: Any idea what this test logged for COc1ccc2c3n(c(=NC(=O)c4cccnc4)nc2c1OC)CCN3 ?
Result: true

Q: Recorded call for Cc1csc(NC(=O)c2sc3nc4c(c(C(F)(F)F)c3c2N)CCC4)n1 ?
Result: true

Q: // return assay outcome for CC(=O)NC(C)c1ccc(Oc2ccc(OC(C)C)cc2)cc1 (stereo not given)
Result: true

Q: Field: outcome | Entry: O=C(Nc1cccnc1)N1CCC(Cc2cccc(Oc3ccc(C(F)(F)F)cn3)c2)CC1
Result: true

Q: I'd appreciate the recorded outcome for CC(C)NCC(O)COc1ccc(COCCOC(C)C)cc1 (stereo not given) from this test.
Result: false

Q: Hi, sorry to bother you, what did the test record for O=C1CCC(N2C(=O)c3ccccc3C2=O)C(=O)N1 (stereo not given) ?
Result: false

Q: Assay result, entry CN(C)C(=O)c1ccc(S(=O)(=O)c2ccc(NC(=O)[C@@](C)(O)C(F)(F)F)c(Cl)c2)cc1 — outcome?
Result: true

Q: Returns: the outcome recorded for CS(=O)(=O)c1cccc(CNc2nc(Nc3ccc4c(c3)CCC(=O)N4)ncc2C(F)(F)F)c1 in this assay.
Result: true

Q: Recorded test call requested for COc1ccccc1[C@H](c1cccc2ccccc12)[C@@](C)(C#N)C(=O)N1CCC(c2cccc(C(F)(F)F)c2)CC1
Result: true

Q: Please let me know the test result on file for CCC(C)(C)C(=O)O[C@H]1C[C@@H](C)C=C2C=C[C@H](C)[C@H](CC[C@@H]3C[C@@H](O)CC(=O)O3)[C@H]21 .
Result: true

Q: Hey, what did the test say about CCCCCCCc1ccc(CCc2cccc(O)c2C(=O)O)cc1 ?
Result: true

Q: Please state the recorded outcome for this molecule: Cc1cc(-c2ccc(CC(=O)Nc3ccc(-c4cccnc4)cc3)cc2)ccn1
Result: true

Q: Outcome logged for CO[C@@H]1[C@H](N(C)C(=O)c2ccccc2)C[C@H]2O[C@]1(C)n1c3ccccc3c3c4c(c5c6ccccc6n2c5c31)C(=O)NC4 in this assay:
Result: true

Q: Test call, this molecule: CS(=O)(=O)c1ccc(C(=O)Nc2ccc(Cl)c(-c3ccccn3)c2)c(Cl)c1
Result: true

Q: Which result was noted for this molecule in the test: O=c1[nH]cnc2[nH]ncc12
Result: false

Q: Fill in: this test's call for C[C@H](NC(=O)Cc1cc(F)cc(F)c1)C(=O)N[C@@H]1C(=O)N(C)c2ccccc2-c2ccccc21 is ___
Result: true

Q: Hey, what did the test say about Oc1cccc(-c2nc(N3CCOCC3)c3oc4ncccc4c3n2)c1 ?
Result: true

Q: Write down the call the test reported for this molecule. Item: OCCC#Cc1nc(-c2ccc(F)cc2)c(-c2ccncc2)n1CCCc1ccccc1
Result: true

Q: Can you look up the reported call for Cc1c(CN2CCN(C(=O)C(C)C)CC2)sc2c(N3CCOCC3)nc(-c3cnc(N)nc3)nc12 for me?
Result: true

Q: Please indicate how the test categorized CCOC(=O)C1=C[C@]2(CC)CCCN3CCc4c(n1c1ccccc41)[C@@H]32 .
Result: true

Q: Which outcome was entered for the molecule CCC(=O)N[C@H]1CC[C@H](C(=O)N(C)c2ccc(-c3nc4ccccc4o3)cc2)C1 in this test?
Result: true

Q: What was the test verdict on CCOc1cc(C=C2C(=O)N(c3ccccc3)N=C2C)cc(Cl)c1OCC(=O)OC ?
Result: true

Q: Just curious, what result did O=C(O)COCCN1CCN(C(c2ccccc2)c2ccc(Cl)cc2)CC1 (stereo not given) get here?
Result: false

Q: Each molecule tested received a call. Report the one for CCn1c(-c2nonc2N)nc2c(C#CC(C)(C)O)ncc(OC[C@H]3CCCNC3)c21 .
Result: true

Q: Tell me the recorded outcome of this test for CS(=O)(=O)Oc1ccc2c(NC(N)=O)c(C(=O)c3ccc(Cl)cc3Cl)oc2c1 .
Result: true

Q: Write down the call the test reported for this molecule. Item: OCCn1cc(-c2cnc3nnn(Cc4ccc5ncccc5c4)c3n2)cn1
Result: true

Q: Call for entry O=c1[nH]c(-c2ccc(C(F)(F)F)cc2)nc2c1CSCC2 :
Result: true

Q: Test call, this molecule: Nc1nc2ccc(OC(F)(F)F)cc2s1
Result: false

Q: Tell me the recorded outcome of this test for CC(c1cc2ccccc2s1)N(O)C(N)=O (stereo not given) .
Result: false
